# Target Of Assay: BaF3 cells expressing the target EGFR mutations (Homo sapiens, UniProt P00533, T790M/L858R, cells depend on it)
# Construct: IC50, BAF3 EGFR L858R-T790M PURO POOL; other: BAF3 EGFR L858R-T790M PURO POOL cells, MTT; IC50, BAF3 EGFR L858R-T790M PURO POOL; other: BAF3 EGFR L858R-T790M PURO POOL cells; MTT
# Sequence (P00533 whole entry T790M/L858R): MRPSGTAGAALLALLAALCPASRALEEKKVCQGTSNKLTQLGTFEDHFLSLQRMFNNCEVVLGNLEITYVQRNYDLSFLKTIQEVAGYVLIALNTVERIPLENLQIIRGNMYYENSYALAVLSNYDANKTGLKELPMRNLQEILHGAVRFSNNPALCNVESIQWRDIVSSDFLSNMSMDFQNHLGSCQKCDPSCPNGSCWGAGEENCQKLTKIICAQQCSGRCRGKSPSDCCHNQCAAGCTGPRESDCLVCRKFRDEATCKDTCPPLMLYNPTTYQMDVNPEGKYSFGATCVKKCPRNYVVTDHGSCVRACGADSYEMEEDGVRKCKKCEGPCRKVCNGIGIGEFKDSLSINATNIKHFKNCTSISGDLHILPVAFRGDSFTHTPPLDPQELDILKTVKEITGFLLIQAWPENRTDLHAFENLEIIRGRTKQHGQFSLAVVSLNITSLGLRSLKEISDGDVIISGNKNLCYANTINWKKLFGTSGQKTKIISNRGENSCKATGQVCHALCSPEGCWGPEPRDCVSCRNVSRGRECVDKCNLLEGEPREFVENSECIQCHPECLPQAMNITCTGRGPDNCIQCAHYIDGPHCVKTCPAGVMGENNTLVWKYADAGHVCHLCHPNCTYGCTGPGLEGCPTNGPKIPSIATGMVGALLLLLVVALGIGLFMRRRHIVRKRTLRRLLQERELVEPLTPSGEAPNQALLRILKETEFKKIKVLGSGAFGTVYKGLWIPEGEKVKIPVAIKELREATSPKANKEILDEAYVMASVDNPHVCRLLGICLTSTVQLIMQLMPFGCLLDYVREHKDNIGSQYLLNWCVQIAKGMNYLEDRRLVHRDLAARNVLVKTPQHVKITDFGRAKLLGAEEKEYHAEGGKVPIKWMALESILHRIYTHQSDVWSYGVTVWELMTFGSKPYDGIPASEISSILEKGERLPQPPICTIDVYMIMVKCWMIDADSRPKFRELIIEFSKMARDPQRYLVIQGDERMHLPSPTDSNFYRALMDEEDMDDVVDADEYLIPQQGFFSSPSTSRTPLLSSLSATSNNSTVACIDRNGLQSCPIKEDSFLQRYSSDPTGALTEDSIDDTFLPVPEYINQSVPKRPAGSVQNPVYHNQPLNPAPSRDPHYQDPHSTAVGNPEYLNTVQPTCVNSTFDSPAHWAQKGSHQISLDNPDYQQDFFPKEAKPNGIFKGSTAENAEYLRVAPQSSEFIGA
# Experimental Details: Antiproliferative activity (MTT) against BaF3 cells expressing the target EGFR mutations
# Type: cell-based
# Test Context: BAF3 EGFR L858R-T790M PURO POOL cells, read-out: IC50, BAF3 EGFR L858R-T790M PURO POOL
Measured Property: GI50

Record excerpt, results attached:
> print(dat)
                                   compound  result.value
1  C=CC(=O)Nc1cc(Nc2ncc(Cl)c(Nc3ccccc3P(C)(C)=O)n2)c(OC)cc1O[C@@H]1CCCN(C)C1 (single isomer, unassigned)       < 50 nM
2  C=CC(=O)Nc1cc(Nc2ncc(Cl)c(Nc3ccccc3P(C)(C)=O)n2)c(C)cc1C#CCN(C)C       < 50 nM
3  C=CC(=O)Nc1cc(Nc2ncc(Cl)c(Nc3ccccc3P(C)(C)=O)n2)c(OC)cc1C#CC(C)(C)N1CCCC1       < 50 nM

Recorded GI50 of `C=CC(=O)Nc1ccc(Cl)c(Nc2ncc(Cl)c(Nc3ccccc3P(C)(C)=O)n2)c1` , please.
< 50 nM

Look up GI50: `C=CC(=O)Nc1cc(Nc2ncc(Cl)c(Nc3ccccc3P(C)(C)=O)n2)c(OC)cc1OCCCN1CCOCC1`
101 to 250 nM

Can you share its GI50? I mean this compound: C=CC(=O)Nc1cc(Nc2ncc(Cl)c(Nc3ccccc3P(C)(C)=O)n2)c(OC)cc1OC(COCC)CN(C)C (centres unmarked)
< 50 nM

Given `COc1ccc(NC(=O)/C=C\C(=O)O)cc1Nc1ncc(Cl)c(Nc2ccccc2P(C)(C)=O)n1` , state its recorded GI50.
≥ 250 nM

Fill blank: measured GI50 of the compound `C=C(CN1CCC(N2CCN(C)CC2)CC1)C(=O)Nc1ccc(OC)c(Nc2ncc(Cl)c(Nc3ccccc3P(C)(C)=O)n2)c1` is ____.
< 50 nM

Name the recorded GI50 for C=CC(=O)Nc1cc(Nc2ncc(Cl)c(Nc3ccccc3P(C)(C)=O)n2)c(OC)cc1N1CCC(N)C1 (centres unmarked) .
≥ 250 nM
